testTarget: DLG2_2, Q15700
Sequence (Q15700 189-283): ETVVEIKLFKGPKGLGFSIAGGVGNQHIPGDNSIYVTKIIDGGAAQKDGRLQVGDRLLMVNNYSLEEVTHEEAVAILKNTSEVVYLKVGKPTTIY
testMethodNotes: holdup assay
Set-up: key: below the threshold = too weak to quantify, mostly under pKd 3.1 to 4
conditionsUsed: plain residues with an end cap or a label only (N-terminal biotin on a linker: ado-ado)
measureName: pKd

Worked cases, answers included:
{"binder": "GQNMTVSVVI [PRLHR, P49683]", "pKd": "below the threshold"}
{"binder": "NNMAFETTHF [SLC5A12, Q1EHB4]", "pKd": "below the threshold"}
{"binder": "PGKKPEDSRV [SLCO2B1, O94956]", "pKd": 3.5}
{"binder": "LLQEEWETVM [PTH1R, Q03431]", "pKd": "below the threshold"}
{"binder": "ELKAEDEVQI [DCHS2, Q6V1P9]", "pKd": "below the threshold"}

# pKd of SKQFDKNAYV [CLDN10, P78369] = below the threshold

# pKd of QRYPGNQTTC [CCL24, O00175] = 3.51
